Reference for the values: paper PMC5622733

Experimental target: BACE1 (Homo sapiens, UniProt P56817)
Sequence (P56817 46-501): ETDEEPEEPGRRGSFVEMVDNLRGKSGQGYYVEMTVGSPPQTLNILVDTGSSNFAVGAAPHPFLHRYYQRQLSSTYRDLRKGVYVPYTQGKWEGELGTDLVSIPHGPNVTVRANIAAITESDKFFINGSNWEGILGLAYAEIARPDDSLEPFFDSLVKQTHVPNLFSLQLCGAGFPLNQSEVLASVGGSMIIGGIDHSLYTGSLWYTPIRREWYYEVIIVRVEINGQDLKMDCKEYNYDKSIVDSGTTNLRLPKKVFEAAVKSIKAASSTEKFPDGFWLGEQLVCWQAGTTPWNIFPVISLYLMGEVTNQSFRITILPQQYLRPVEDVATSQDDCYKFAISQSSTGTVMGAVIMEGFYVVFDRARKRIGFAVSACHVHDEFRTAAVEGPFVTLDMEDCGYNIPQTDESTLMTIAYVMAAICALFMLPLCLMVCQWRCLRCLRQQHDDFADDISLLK
pIC50: −log10 of the molar value.
Test readout: pIC50

>>> numeric_result("COc1ccc(-c2cc(=O)c3c(OC)c(OC)c(OC)c(OC)c3o2)cc1 [Tangeretin, 5,6,7,8,4′-pentamethoxyflavo-ne]")
4.31

====

Form: system (BACE1 (Homo sapiens, UniProt P56817)), quantity (pKi), values below.
pKi: −log10 of the molar value.
Test readout: pKi

>>> numeric_result("COc1ccc(-c2cc(=O)c3c(OC)c(OC)c(OC)cc3o2)cc1OC [Sinensetin, 5,6,7,3′,4′-pentamethoxyflavone]")
4.42
>>> numeric_result("COc1ccc(-c2cc(=O)c3c(OC)c(OC)c(OC)c(OC)c3o2)cc1 [Tangeretin, 5,6,7,8,4′-pentamethoxyflavo-ne]")
4.43
